Assay: NCI Yeast Anticancer Drug Screen. Data for the cln2 rad14 strain (AID 165)
Details: S. cerevisiae cln2 rad14 strain, at 50.0 µM (retest, dose inferred, filed as 5.0)
This is part of a sample that, as a whole, favours compounds with a hit. Of some 79,000 tested, about 15% had one in any assay. The source made the active and inactive calls. No stated cut-off is given here; in the data, active means growth inhibition above about 70%; inactive means the rest.
Give one outcome, nothing more. List: Yes (active), No (inactive)

# Molecule, Assigned Class
data = [
    ("N=P(c1ccccc1)(c1ccccc1)c1ccccc1 (tested in a mixture with another compound)", "No"),
    ("c1ccncc1", "No"),
    ("O=P(Nc1cccc(Cl)c1)(Oc1ccccc1)N(CCCl)CCCl (configuration not stated)", "No"),
    ("Nc1ccc2cc(Br)ccc2c1", "No"),
    ("COc1cc(C=Nc2ccc(-c3csc(COc4ccccc4)n3)cc2)ccc1N(CCCl)CCCl", "Yes"),
]

Now look at this entry.
Short answer needed: outcome of this test for COC(=O)C1=C(C(=O)OC)C2OC1c1cc3ccccc3cc12 ? Yes
